# measurement.parameters: buffer; pH 7.4; 200.0 µM
measured.endpoint: solubility kinetic

compound: CNc1nnc(-c2ccc(OC)cc2)s1
solubility kinetic: > 33.2 µg/mL

Task item: Sample O=C(Nc1cccc2ccccc12)NC1Cc2ccccc2C1 — what was its solubility kinetic?
Reply: < 0.3 µg/mL

###

The compounds listed here are annotated with their solubility kinetic.
# measurement.parameters: buffer; pH 7.4; 200.0 µM
Just the number in µg/mL, nothing appended.

compound: Cc1ccc2[nH]cc(S(=O)(=O)c3ccc(F)cc3)c(=O)c2c1
unit.name: µg/mL
solubility kinetic: 5.5

compound: CC(NC(=O)c1ccco1)c1nc(-c2ccccc2)no1 (configuration not stated)
unit.name: µg/mL
solubility kinetic: 31.7

compound: COc1cccc(NC(=O)Nc2ccc3nc(C)c(C)nc3c2)c1
unit.name: µg/mL
solubility kinetic: 0.9

Task item: Sample Cc1ccc(NC(=S)NC(C)(C)C)c([N+](=O)[O-])c1 — what was its solubility kinetic?
Reply: 8.2

###

The compounds listed here are annotated with their solubility kinetic.
# measurement.parameters: buffer; pH 7.4; 200.0 µM

Here is how some compounds turned out for solubility kinetic.
compound: Cc1cc(C(=O)NN=C2CCCC2)c2ccccc2n1
result: > 40.1 µg/mL
--
compound: Cc1ccc(CONC(=O)c2cccc(C)c2)cc1
result: 38.2 µg/mL
--
compound: Cc1cc(-c2ccccc2)c2c(n1)sc1c(O)cc(=O)[nH]c12
result: > 46.3 µg/mL
--
compound: CN1CCN(C(=O)/C=C/c2ccc(Cl)c(Cl)c2)CC1
result: 41 µg/mL

Task item: Sample CCN(CC)c1ccc(NC(=S)NC(=O)c2cccs2)cc1 — what was its solubility kinetic?
Reply: < 0.2 µg/mL

Task item: Sample N#Cc1c(F)cccc1N1CCC(C#N)CC1 — what was its solubility kinetic?
Reply: > 34.4 µg/mL

Task item: Sample Cc1cccc(NC(=O)CNC(=O)c2cccs2)n1 — what was its solubility kinetic?
Reply: > 41.3 µg/mL

Task item: Sample Cc1cccc(CC(=O)Nc2cccnc2)c1 — what was its solubility kinetic?
Reply: 31 µg/mL

Task item: Sample CCOC(=O)N1CCN(C(=O)/C=C/c2ccc(C(C)(C)C)cc2)CC1 — what was its solubility kinetic?
Reply: 22.9 µg/mL

Task item: Sample CCC(C)NC(=O)c1ccc2c(c1)N(Cc1ccccc1)C(=O)CS2 (centres undefined) — what was its solubility kinetic?
Reply: 3.6 µg/mL

Task item: Sample Cc1cccc(N2CC(C(=O)Nc3ccc(N4CCOCC4)cc3)CC2=O)c1C (centres undefined) — what was its solubility kinetic?
Reply: > 59 µg/mL

###

# measurement.parameters: buffer; pH 7.4; 200.0 µM
measured.endpoint: solubility kinetic (µg/mL)
Just the number in µg/mL, nothing appended.

Here is how some molecules turned out for solubility kinetic.
molecule: O=C1Nc2cc(C(F)(F)F)ccc2N2CCCCC12 (centres undefined)
unit.name: µg/mL
number: 7.1
//
molecule: Cc1ccc(CNC(=O)CCSCc2ccc(C)cc2)cc1
unit.name: µg/mL
number: 14.3
//
molecule: Cc1noc(C)c1C(=O)Nc1nc2ccc(Cl)cc2s1
unit.name: µg/mL
number: 2.1
//
molecule: COc1ccc(CCNC(=O)C(=O)NCc2cccs2)cc1OC
unit.name: µg/mL
number: 21.4
//
molecule: CCCCN1C(=O)CC(Sc2ncccc2C(=O)O)C1=O (centres undefined)
unit.name: µg/mL
number: 39.9
//
molecule: N#C/C(=C\Nc1ccc(F)c(Cl)c1)S(=O)(=O)c1ccccn1
unit.name: µg/mL
number: 42

Task item: Sample CC(C)c1ccc(CN2CCSCC2)cc1 — what was its solubility kinetic?
Reply: 1.1

Task item: Sample COc1ccc(CC(=O)OCc2csc(CC(=O)Nc3ccc(C)cc3)n2)cc1 — what was its solubility kinetic?
Reply: 4.8

Task item: Sample CC(C)N(C(=S)Nc1cccc(C(F)(F)F)c1)C(C)c1ccccn1 (centres undefined) — what was its solubility kinetic?
Reply: 6.7

Task item: Sample O=C(O)c1ccc(Nc2ccc3nonc3c2[N+](=O)[O-])cc1 — what was its solubility kinetic?
Reply: 44.9

Task item: Sample Cc1cc2cc(CNC(=O)Nc3ccccc3)ccc2[nH]1 — what was its solubility kinetic?
Reply: 15.6

Task item: Sample CCN(CC)C(=O)c1ccc(COc2ccc(Cl)c(C)c2)o1 — what was its solubility kinetic?
Reply: 10.7

###

# measurement.parameters: buffer; pH 7.4; 200.0 µM
The molecules listed here are annotated with their solubility kinetic.
Just the number in mg/mL, nothing appended.

molecule: O=C(Nc1nc(-c2ccc(F)cc2)cs1)c1cccnc1
solubility kinetic (mg/mL): 0.0006
--
molecule: COc1ccccc1-c1c(C#N)c(N)nc2c1CCC2
solubility kinetic (mg/mL): 0.005
--
molecule: COc1ccccc1C(=O)CSc1nccn1C
solubility kinetic (mg/mL): 0.0359
--
molecule: c1csc(-c2noc(CN3CCOCC3)n2)c1
solubility kinetic (mg/mL): 0.0366
--
molecule: O=C(COC(=O)c1ccc[nH]c1=O)NC1CCCCCCC1
solubility kinetic (mg/mL): 0.0415

Task item: Sample O=C1CN(S(=O)(=O)c2ccccc2C(F)(F)F)CCN1 — what was its solubility kinetic?
Reply: 0.0403

Task item: Sample C=CCOC(=O)C1=C(C)OC(N)=C(C#N)C1c1ccco1 (stereo not given) — what was its solubility kinetic?
Reply: 0.0096

Task item: Sample Cc1noc(C(=O)Nc2ccc(F)c(Cl)c2)c1Cl — what was its solubility kinetic?
Reply: 0.0014

Task item: Sample NC(=O)C1CCN(C(=O)/C=C/c2cccc(Br)c2)CC1 — what was its solubility kinetic?
Reply: 0.0469

Task item: Sample O=C(NC(=S)Nc1cc([N+](=O)[O-])ccc1O)c1cccnc1 — what was its solubility kinetic?
Reply: 0.0135

Task item: Sample CCOC(=O)C1=C(C)NC(C)=C(C(=O)OCC)C1C(=O)OCC(=O)N1CCC(C)CC1 — what was its solubility kinetic?
Reply: 0.0159

Task item: Sample N#C/C(=C\c1ccc(F)cc1F)S(=O)(=O)c1ccccn1 — what was its solubility kinetic?
Reply: 0.0424

Task item: Sample COC(=O)C1CCCN1C(=O)C12CC3CC(CC(C3)C1)C2 (stereo not given) — what was its solubility kinetic?
Reply: 0.0419

Task item: Sample COc1ccc(C(=O)Nc2nc3ccccc3[nH]2)cc1 — what was its solubility kinetic?
Reply: 0.0041

Task item: Sample O=C(Nc1cnccn1)c1ccc(Cl)cc1 — what was its solubility kinetic?
Reply: 0.0347

Task item: Sample O=C(COC(=O)c1cc(-c2ccccc2)nc2ccccc12)NC1CC1 — what was its solubility kinetic?
Reply: 0.0066

Task item: Sample Cc1ccc(C(=O)COC(=O)c2nc(Cl)ccc2Cl)cc1 — what was its solubility kinetic?
Reply: 0.0484

###

# measurement.parameters: buffer; pH 7.4; 200.0 µM
measured.endpoint: solubility kinetic

Here is how some compounds turned out for solubility kinetic.
compound: O=S(=O)(c1ccc2c(c1)CCCN2)N1CCCC1
solubility kinetic: > 40 µg/mL

compound: CC(=O)c1ccc(NC(=O)CSc2nccn2C)cc1
solubility kinetic: > 43.4 µg/mL

compound: CC(C)C(=O)Nc1ccc2c(c1)Cc1cc(NC(=O)C(C)C)ccc1-2
solubility kinetic: < 0.4 µg/mL

Task item: Sample O=C1N(c2ccccc2)C(c2cccnc2)N2CCCN12 (centres undefined) — what was its solubility kinetic?
Reply: > 42 µg/mL

###

# measurement.parameters: buffer; pH 7.4; 200.0 µM
The molecules listed here are annotated with their solubility kinetic.
Just the number in µg/mL, nothing appended.

Here is how some molecules turned out for solubility kinetic.
molecule: O=S(=O)(Nc1ccc(O)c2ccccc12)c1cccs1
solubility kinetic [µg/mL]: 24.9
--
molecule: CC(C)c1ccc2oc(=O)cc(CN3CCOCC3)c2c1
solubility kinetic [µg/mL]: 41.9
--
molecule: COc1ccc(NC(=O)CN2CCCCCC2)cc1OC
solubility kinetic [µg/mL]: 32.2
--
molecule: Cc1cccc(-c2noc(CNC(=O)c3ccc4c(c3)OCO4)n2)c1
solubility kinetic [µg/mL]: 2.3
--
molecule: Cc1cccc(CN(C(=S)Nc2c(C)cccc2C)c2cccnc2)c1
solubility kinetic [µg/mL]: 16.9

Task item: Sample Fc1ccccc1CNC(=S)NCc1ccc(Cl)cc1 — what was its solubility kinetic?
Reply: 3.3

Task item: Sample CC(=O)c1cccc(NC(=O)NCc2ccc3c(c2)OCO3)c1 — what was its solubility kinetic?
Reply: 9.2

Task item: Sample CN1CCN(c2ccc(Cl)cc2NC(=O)/C=C/c2ccc(F)cc2)CC1 — what was its solubility kinetic?
Reply: 38.4

Task item: Sample O=C(Nc1nc2ccccc2n1CCN1CCOCC1)c1ccccc1 — what was its solubility kinetic?
Reply: 51.4

###

The compounds listed here are annotated with their solubility kinetic.
# measurement.parameters: buffer; pH 7.4; 200.0 µM
Non-standard residues stand in square brackets, D forms with d. Residues, ends and D or L forms follow the SMILES beside them. ξ: configuration not given here. *: point of attachment. Tos = Cc1ccc(S(=O)(=O)*)cc1; ξP = O=C(O)C1CCCN1

Here is how some compounds turned out for solubility kinetic.
compound: CCNS(=O)(=O)c1ccc(CCC(=O)NCc2ccccn2)cc1
result: > 52.1 µg/mL
//
compound: O=C(Cc1ccsc1)NCC(=O)Nc1ccc(F)c(F)c1
result: > 46.5 µg/mL
//
compound: O=C(COc1ccc2ccc(=O)oc2c1)N1CCc2ccccc21
result: < 0.7 µg/mL

Task item: Sample CC(C)N(C(=O)COC(=O)CCC(=O)c1cccs1)c1ccccc1 — what was its solubility kinetic?
Reply: > 53.9 µg/mL

Task item: Sample COC(=O)c1ccc(S(=O)(=O)N2CCN(C)CC2)n1C — what was its solubility kinetic?
Reply: > 45.2 µg/mL

Task item: Sample Cc1ccc(S(=O)(=O)NCC(=O)N2CCCC2C(=O)O)cc1 (stereo not drawn) (Tos-Gly-[ξP]-OH) — what was its solubility kinetic?
Reply: > 49 µg/mL
